Each record here notes measured GI50.
System: NCI-H226
PROCEDURE_DETAILS: NCI tumour cell line growth inhibition, 48 h
Activity calls are given as the source filed them. No stated cut-off is given here; in the data, active = GI50 up to about 1.1 µM and inactive = higher.

input: Data request, read-out GI50, for O=C1/C(=C/C=C/c2ccccc2)N=C(c2ccccc2)N1c1ccc(S(=O)(=O)Nc2nccs2)cc1
output: 20 µM (inactive)

* * *

Quick record of GI50 values for HCT-15.

Example entries begin here.
COMPOUND	GI50
O=C1Nc2ccccc2/C1=N/Nc1nc(-c2ccc([N+](=O)[O-])cc2)cs1	14.5 µM
C[N+](C)(CCCn1ccnc1[N+](=O)[O-])CCCn1ccnc1[N+](=O)[O-]	> 100 µM
CN(CC#N)C(=O)Cc1ccc([N+](=O)[O-])cc1	> 10 µM
CC1(C)OC[C@@H]([C@H](C=O)OCc2ccccc2)O1	> 100 µM

input: Suppose we examine the compound NCCCCCC(CCN)SCC1OC(n2cnc3c(N)ncnc32)C(O)C1O (stereo unspecified) ; what GI50 value has been reported?
output: > 946 µM

input: // returns reported GI50 for input Cc1ccc(Cc2n[nH]c(=O)n2-c2ccccc2)cc1
output: > 100 µM

input: Entry COc1cc2nn(-c3ccccc3)nc2c2nonc12 has what GI50?
output: > 100 µM

input: Consider the compound shown here: c1ccc(-c2cnc(-c3ccc(-c4ncc(-c5ccccc5)o4)cc3)o2)cc1 What is its recorded GI50?
output: > 100 µM

input: Data request, read-out GI50, for O=C1C=C/C(=N/c2cccc3c(/N=C4/C=CC(=O)O4)cccc23)O1
output: 37.3 µM

input: Could you tell me which GI50 is on file for CC(=O)Oc1ccccc1C(=O)C1c2cccc(O)c2C(=O)c2c(O)cccc21 ?
output: 1.08 µM

input: Need GI50 of CCOC(=O)[C@H]1Nc2ccc(O)cc2C2c3ccccc3CC21 (stereo partly specified) , thanks.
output: 72.8 µM

* * *

Test system: KM12
PROCEDURE_DETAILS: NCI tumour cell line growth inhibition, 48 h
Active and inactive are the calls of the source. No stated cut-off is given here; in the data, active = GI50 up to about 1.1 µM and inactive = higher.
Below: a set of entries, each annotated with reported GI50.

Consider the reported GI50 for these compounds:
COMPOUND	GI50
Cn1c2ccccc2c(=O)c2c(O)cc3c(c21)CC(C1(C)CO1)O3 (configuration not stated)	2.41 µM (inactive)
CN(C)Cc1c(O)ccc2c1c1c(n2C)C(=O)c2ccccc2C1=O	3.2 µM (inactive)
Cc1cccc(C)c1CO	> 100 µM (inactive)
Cc1cc2c(cc1C)NC(=O)C(NC(=O)/C=C/c1ccccc1)C=N2 (configuration not stated)	19.5 µM (inactive)
COC(=O)[C@]1(c2cc3ccccc3[nH]2)CC2CNC1C1OC(C)(C)OC21 (some centres not stated)	> 100 µM (inactive)

input: GET /values?readout=GI50&item= Cc1ccc2c(c1)C1(C)OC(C=CC1=O)O2 (configuration not stated)
output: 0.736 µM (active)

* * *

Test system: IGROV-1
PROCEDURE_DETAILS: NCI tumour cell line growth inhibition, 48 h
Activity calls are given as the source filed them. No stated cut-off is given here; in the data, active = GI50 up to about 1.1 µM and inactive = higher.
In this section we review reported GI50 values for a set of compounds.

COMPOUND	GI50
COC(=O)C1=C(OC)[C@H]2C#C/C=C\C#C[C@@H]3Nc4c(cc(O)c5c4C(=O)c4ccccc4C5=O)[C@]24O[C@@]34[C@H]1C	< 0.0127 µM (active)
N#CCC(=O)N1CCCCCCC1	> 100 µM (inactive)
C#CC1(O)CCC2[C@@H]3CCc4cc(Oc5nc(F)nc(-c6c(C)c(C(=O)OCC)n7ccccc67)n5)ccc4C3CC[C@@]21C (stereo not given in full)	> 100 µM (inactive)
C[n+]1cccc2ccc(OC(=O)c3ccccc3)cc21	> 100 µM (inactive)

input: For the compound shown here, C[n+]1c(-c2ccc(/C=N/NC(=S)N/N=C/c3ccc(-c4cn5ccsc5[n+]4C)cc3)cc2)cn2ccsc21 , give the reported GI50.
output: > 100 µM (inactive)

input: Endpoint output: GI50 of CN(C)c1ccc(C2SCC(=O)N2c2ccc(Oc3ccc(Cl)cc3)c(Cl)c2)cc1 (stereo not given) . Value?
output: 22.6 µM (inactive)

input: Please give the measured GI50 for this compound: NC(=O)CC(Nc1ncc2c(n1)-c1ccccc1OC2)C(=O)O (stereo not given)
output: 24.2 µM (inactive)

input: GI50 lookup needed for COC(=O)/C=C\C(C#N)(C#N)/N=C/c1ccsc1 , thanks.
output: 9.08 µM (inactive)

input: Which GI50 reading was recorded for the compound COc1ccc(C(=O)C/C(=N/NC(N)=S)C(=O)Nc2ccccc2)cc1 ?
output: > 100 µM (inactive)

input: I'd like to know its GI50. The compound in question is N#CC(C#N)=C1SCC(=O)CS1
output: > 100 µM (inactive)

input: Consider the compound CCC1=[N+](CC)CCN1CC and give its measured GI50.
output: > 100 µM (inactive)

* * *

System: RXF 393
PROCEDURE_DETAILS: NCI tumour cell line growth inhibition, 48 h
Calls of active or inactive are those of the source. Cut-off read from the data, not from the text of the source: active = GI50 up to about 1.1 µM and inactive = higher.
READOUT_KIND: GI50

COMPOUND	READOUT_KIND	OBSERVED_MEASUREMENT
S=C1Nc2ccccc2SC1c1ccccc1 (stereo unspecified)	GI50	16.6 µM (inactive)
N#Cc1ccccc1NC(=O)C(=O)C(C(=O)c1ccncc1)C1OC(=O)c2ccccc21 (stereo unspecified)	GI50	> 100 µM (inactive)
O=C1C=CC(=O)c2cc(Sc3ccccc3)c(=O)c(Sc3ccccc3)cc21	GI50	14 µM (inactive)

Turning to the following compound.
input: I am curious: what GI50 value has been reported for C[Si](C)(c1ccccc1)C1CC(=O)CC(=O)C1 ?
output: 37.3 µM (inactive)

* * *

System: NCI-H23
PROCEDURE_DETAILS: NCI tumour cell line growth inhibition, 48 h
Activity calls are given as the source filed them. No stated cut-off is given here; in the data, active = GI50 up to about 1.1 µM and inactive = higher. Numbered stars: 1 amine (or outer) side, 2 acyl side, 3 side chain; on linkers, the order of the positions; unused ones are H or OH. Square brackets hold non-standard residues; d marks the D form. Peptide text beside a SMILES is read from it. * marks the point of attachment. X30 = CC(=O)N(C)SCC(N[*:1])C(=O)[*:2]; Cbz = O=C(OCc1ccccc1)*; Bn = c1ccc(C*)cc1
READOUT_KIND: GI50

Field: example entries. Status: answers known.
COMPOUND	READOUT_KIND	OBSERVED_MEASUREMENT
COc1cccc(C2C(C(=O)Nc3cc(=O)n(C)c(=O)n3C)=C(C)NC(C)=C2C(=O)Nc2cc(=O)n(C)c(=O)n2C)c1O	GI50	> 100 µM (inactive)
Cc1nn2c(=O)c([N+](=O)[O-])c(/C=C/c3ccc(F)cc3)nc2s1	GI50	15.2 µM (inactive)
N#CC(C#N)=CNC(=S)Nc1ccc(S(=O)(=O)Nc2nccs2)cc1	GI50	> 100 µM (inactive)
O=C(OCCO)C1CC2CC1C1(C2)OCCO1 (configuration not stated)	GI50	> 100 µM (inactive)
NC1=NCC(c2ccccn2)C1c1ccc(F)cc1 (configuration not stated)	GI50	> 100 µM (inactive)

input: GI50 lookup needed for COc1c(C(=O)c2ccc([N+](=O)[O-])cc2)cc(C(C)(C)C)cc1C(C)(C)C , thanks.
output: 34.7 µM (inactive)

input: GI50 lookup needed for CC(=O)N(C)SCC(NC(=O)C(Cc1ccccc1)NC(=O)OCc1ccccc1)C(=O)NC(Cc1ccccc1)C(=O)NC(Cc1c[nH]c2ccccc12)C(=O)NC(CCCCNC(=O)OCc1ccccc1)C(=O)NC(C(=O)NC(CSN(C)C(C)=O)C(=O)NC(C(N)=O)C(C)OCc1ccccc1)C(C)OCc1ccccc1 (configuration not stated) (Cbz-F[X30]FWK(Cbz)T(Bn)[X30]T(Bn)-NH2; configuration not given here) , thanks.
output: > 100 µM (inactive)

* * *

System: HT-29
PROCEDURE_DETAILS: NCI tumour cell line growth inhibition, 48 h
Active and inactive are the calls of the source. Rule as the data show it: active = GI50 up to about 1.1 µM and inactive = higher.
Overview of reported GI50 across a group of compounds:

Sample records with GI50:
COMPOUND	EXPERIMENTAL_TARGET	GI50
CC1CC[C@]2(C(=O)O)CCC3(C)C(=C2[C@H]1C)C=CC1[C@@]2(C)CC[C@H](O)C(C)(C)C2CC[C@]13C (stereo not given in full)	HT-29	31.1 µM (inactive)
COC1(C)C(=O)N2C1N(C(=O)OC(C)(C)C)CC2(C)C (stereo not given)	HT-29	> 100 µM (inactive)
S=c1[nH]n2c(CCCCCCCCc3nnc4sc(=S)[nH]n34)nnc2s1	HT-29	> 100 µM (inactive)
CN1C(=O)c2c(ccc3c2OCO3)C2C(O)Cc3cc4c(cc3C21)OCO4 (stereo not given)	HT-29	3.3 µM (inactive)

input: What GI50 value was documented for this compound, CN(C)/C=N/S(=O)(=O)c1nn2c(C=O)c(-c3ccccc3)nc2s1 ?
output: 1.94 µM (inactive)
